Data provenance: PubChem BioAssay (NCI)

test system: MDA-MB-468 breast; assay: NCI tumour cell line growth inhibition, 48 h
Some molecules, each annotated with its measured GI50.

>  <Molecule Smiles>
Oc1cccc2c1NCCC2

>  <GI50>
1.83 µM

$$$$
>  <Molecule Smiles>
COc1cc(C(=O)c2cc(C)c3[nH]c4ccc(O)cc4c3c2C)cc(OC)c1OC

>  <GI50>
< 0.0157 µM

$$$$
>  <Molecule Smiles>
COc1ccc2[nH]c(O)c(N=NC(=O)COc3ccc(NC(=O)Nc4ccc(Cl)c(Cl)c4)cc3)c2c1

>  <GI50>
1.17 µM

$$$$
>  <Molecule Smiles>
COc1ccc2c(c1)C(=O)c1c-2c(OCCN(C)C)nc2ccccc12

>  <GI50>
2.76 µM

$$$$
>  <Molecule Smiles>
O=C(NO)c1ccc(-c2nc3ccc4[nH]ncc4c3c3c2CCCC3)cc1

>  <GI50>
0.0979 µM

$$$$
>  <Molecule Smiles>
Cc1[nH]c(-c2cc(N)ccc2Cl)c2c1C(=O)CCCC2

>  <GI50>
1.9 µM

$$$$
>  <Molecule Smiles>
COc1ccc(Nc2ccc([N+](=O)[O-])cc2[N+](=O)[O-])cc1CN(CCCl)CCCl

>  <GI50>
1.99 µM

$$$$
>  <Molecule Smiles>
COc1ccc(/C=C(\C)[N+](=O)[O-])cc1OC

>  <GI50>
1.48 µM

$$$$
>  <Molecule Smiles>
COc1ccc(Nc2ccnc(N3CCN(c4ccnc5cc(Cl)ccc45)CC3)n2)cc1

>  <GI50>
1.5 µM

$$$$
>  <Molecule Smiles>
FC(F)(F)c1cccc(-c2nn3ncccc3c2-c2ccnc(Nc3ccc4c(c3)OCCO4)n2)c1

>  <GI50>
3.97 µM

$$$$

====

system: COLO 205 colon; assay: NCI tumour cell line growth inhibition, 48 h
Some compounds, each annotated with its measured GI50.
Measurement Name: GI50

>  <Molecule Smiles>
CC(=O)Nc1ccc(-n2cnc3cc(-c4ccc(O)cc4)ccc32)cc1C(F)(F)F

>  <Measurement Name>
GI50

>  <Result Value>
11.2 µM

$$$$
>  <Molecule Smiles>
CC(C)C[C@H](NC(=O)CNC(=O)C[C@H]1O[C@@H]2OC3(C)CC[C@H]4[C@H](C)CC[C@@H]([C@H]1C)[C@@]24O3)B(O)O

>  <Measurement Name>
GI50

>  <Result Value>
4.79 µM

$$$$
>  <Molecule Smiles>
COc1ccc2[nH]c(O)c(N=NC(=O)COc3ccc(NC(=O)Nc4ccc(Cl)c(Cl)c4)cc3)c2c1

>  <Measurement Name>
GI50

>  <Result Value>
1.12 µM

$$$$
>  <Molecule Smiles>
N#Cc1cc(-c2ccc3ncnc(N4CCc5cc(F)c(Cl)cc54)c3c2)cnc1N

>  <Measurement Name>
GI50

>  <Result Value>
1.9 µM

$$$$

====

test system: MDA-MB-435
Possible outcomes: active, inactive

>  <Molecule Smiles>
CC(C)C[C@H](NC(=O)CNC(=O)C[C@H]1O[C@@H]2OC3(C)CC[C@H]4[C@H](C)CC[C@@H]([C@H]1C)[C@@]24O3)B(O)O

>  <Assigned Category>
inactive

$$$$
>  <Molecule Smiles>
N#Cc1cc(-c2ccc3ncnc(N4CCc5cc(F)c(Cl)cc54)c3c2)cnc1N

>  <Assigned Category>
inactive

$$$$
>  <Molecule Smiles>
O=C(NO)c1ccc(-c2nc3ccc4[nH]ncc4c3c3c2CCCC3)cc1

>  <Assigned Category>
active

$$$$
>  <Molecule Smiles>
CC(=O)Nc1ccc(-n2cnc3cc(-c4ccc(O)cc4)ccc32)cc1C(F)(F)F

>  <Assigned Category>
inactive

$$$$
